Target: GST-HsPRMT7 (Homo sapiens, UniProt Q9NVM4)
Construct: made in house; host or cells: E. coli
Sequence (Q9NVM4 whole entry): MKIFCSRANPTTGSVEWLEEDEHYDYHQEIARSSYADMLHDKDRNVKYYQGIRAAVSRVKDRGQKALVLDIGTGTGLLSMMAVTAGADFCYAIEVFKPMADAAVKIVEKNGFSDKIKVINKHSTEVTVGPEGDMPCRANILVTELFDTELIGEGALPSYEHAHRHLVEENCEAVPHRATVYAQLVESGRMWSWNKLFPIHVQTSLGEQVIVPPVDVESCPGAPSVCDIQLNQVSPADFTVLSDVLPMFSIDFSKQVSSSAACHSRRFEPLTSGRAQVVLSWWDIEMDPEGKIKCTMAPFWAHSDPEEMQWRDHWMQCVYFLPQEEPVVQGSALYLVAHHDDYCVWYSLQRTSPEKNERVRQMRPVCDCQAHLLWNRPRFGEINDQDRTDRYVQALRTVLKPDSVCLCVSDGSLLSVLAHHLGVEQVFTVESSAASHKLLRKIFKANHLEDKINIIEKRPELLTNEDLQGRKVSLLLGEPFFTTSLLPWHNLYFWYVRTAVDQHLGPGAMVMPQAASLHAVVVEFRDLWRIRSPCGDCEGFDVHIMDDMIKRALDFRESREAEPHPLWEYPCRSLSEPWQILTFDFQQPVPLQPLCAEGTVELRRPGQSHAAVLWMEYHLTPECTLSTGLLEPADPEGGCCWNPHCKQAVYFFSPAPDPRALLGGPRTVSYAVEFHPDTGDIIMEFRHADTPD
Assay: Radioisotope-based assay (SDS-PAGE, fluorography, densitometry), HsPRMT7
Type: biochemical
Conditions: substrate HsH2B, 15 °C, read-out: % HsPRMT7 residual activity
experimental_endpoint: remaining activity at 100 µM (%)

molecule: CSC[C@H]1O[C@@H](n2cnc3c(N)ncnc32)[C@H](O)[C@@H]1O [MTA, 5′-Deoxy-5′-(methylthio)adenosine, reference compound]
experimental_endpoint: remaining activity at 100 µM
endpoint_value: 46.8

[1] COC(=O)c1cc(O)c2cc(NC(=O)NCCCNC(=N)NC[C@H]3O[C@@H](n4cnc5c(N)ncnc54)[C@H](O)[C@@H]3O)ccc2c1
[2] COC(=O)c1cc(O)c2cc(NC(=O)NCCCCCNC(=N)NC[C@H]3O[C@@H](n4cnc5c(N)ncnc54)[C@H](O)[C@@H]3O)ccc2c1
[3] O=C(NC[C@H](O)CN1CCc2ccccc2C1)c1cc(NC2COC2)ncn1 [EPZ015666, reference compound]
[4] COC(=O)c1cc(O)c2cc(NC(=O)NCCCCNC(=N)NC[C@H]3O[C@@H](n4cnc5c(N)ncnc54)[C@H](O)[C@@H]3O)ccc2c1
Problem: Please order the records by their reported remaining activity at 100 µM, lowest number first. Write the labels out in the order the request specifies.
Solution: 2, 1, 4, 3
(2: 0.03%, 1: 0.5%, 4: 8.27%, 3: 120%)
